Values from PubChem BioAssay (NCI)

Test: NCI Yeast Anticancer Drug Screen. Data for the rad50 strain (AID 155);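 note: 0% = growth of vehicle-only cultures of the same strain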
Settings: S. cerevisiae rad50 strain growth inhibition; at 5.0 µM (retest, dose inferred, filed as 0.5); stronger effect = higher value
Compounds without any hit were thinned out: in the full panel of roughly 79,000, 15% have a hit.
metric-name: growth inhibition (%)
// return numeric value only (unit: %, not printed)

// below: answered molecules
INSERT INTO assay_data (molecule, metric_name, observed_measurement) VALUES
  ('CCOC(=O)Nc1c(F)cc(F)cc1F', 'growth inhibition', 0),
  ('CC1=C(C(=O)Nc2ccccc2)C(c2cccc3ccccc23)C(C(=O)Nc2ccccc2)=C(C)N1', 'growth inhibition', -2),
  ('CCN(CC)CCC(=O)NC1c2ccc(Cl)cc2Oc2c(C)cccc21 (configuration not stated)', 'growth inhibition', -23),
  ('CCN(CC)CCO/N=C1\CC[C@H]2[C@@H]3CCc4cc(OC)ccc4[C@H]3CC[C@]12C', 'growth inhibition', 31),
  ('CN(C)CCOC1(CC2CCCCC2)CCC(C(C)(C)C)CC1 (configuration not stated)', 'growth inhibition', -9),
  ('Nc1ccc2c(S(=O)(=O)O)cc(S(=O)(=O)O)cc2c1', 'growth inhibition', 3);

Req: Name the reported growth inhibition value associated with the molecule NNc1ccc2ccccc2n1
Resp: -4

Req: Name the reported growth inhibition value associated with the molecule CCN(CC)CCOc1ccc(C(O)(Cc2ccc(Cl)cc2)c2ccccc2)cc1 (configuration not stated)
Resp: 39

Req: Name the reported growth inhibition value associated with the molecule COC1(OC)C2(Cl)C(Cl)=C(Cl)C1(Cl)C1C2C2CC1(C(=O)O)c1ccccc12 (configuration not stated)
Resp: 29

Req: Name the reported growth inhibition value associated with the molecule Cc1ccccc1Sc1ncnc2ccccc12
Resp: 2

Req: Name the reported growth inhibition value associated with the molecule CCC/C(C)=N/NC(=S)SC
Resp: 70

Req: Name the reported growth inhibition value associated with the molecule CN(C)S(=O)(=O)c1cc(Cl)ccc1NN
Resp: -114
